Collected IC50 values appear next to each entry.
System: MP38 cells
Test: Cell viability (XTT) on uveal melanoma cells MP38
Type: cell-based
Conditions: MP38 cells (primary tumor), 48 hours, XTT
Numbers only; they are read as µM.

O=C(Nc1cc(Cl)cc(Cl)c1)Nc1nc2ccc([N+](=O)[O-])cc2s1	1

Note: attention shifts to another entry.
Input `O=C(Nc1cccc(Cl)c1)Nc1nc2ccc([N+](=O)[O-])cc2s1` . Output IC50: 1

---

Listed compounds paired with reported IC50
Tested on: MP41 cells
Assay: Cell viability (XTT) on uveal melanoma cells MP41
Format: cell-based
Details: MP41 cells (primary tumor), 48 hours, XTT; Table 2; read-out: IC50 (μM) UM MP41
# output: bare number, implied unit µM

O=C(Nc1cccc(Cl)c1)Nc1nc2ccc([N+](=O)[O-])cc2s1 [MCK140]	1

Consider now this further compound.
Just so you know, measured IC50 for O=C(Nc1cc(Cl)cc(Cl)c1)Nc1nc2ccc([N+](=O)[O-])cc2s1 [MCK151] came out at 1.25
